pIC50 by entry:
- Tested on: MAPK1(ERK2) enzyme (Homo sapiens)
- Sequence (P28482 whole entry): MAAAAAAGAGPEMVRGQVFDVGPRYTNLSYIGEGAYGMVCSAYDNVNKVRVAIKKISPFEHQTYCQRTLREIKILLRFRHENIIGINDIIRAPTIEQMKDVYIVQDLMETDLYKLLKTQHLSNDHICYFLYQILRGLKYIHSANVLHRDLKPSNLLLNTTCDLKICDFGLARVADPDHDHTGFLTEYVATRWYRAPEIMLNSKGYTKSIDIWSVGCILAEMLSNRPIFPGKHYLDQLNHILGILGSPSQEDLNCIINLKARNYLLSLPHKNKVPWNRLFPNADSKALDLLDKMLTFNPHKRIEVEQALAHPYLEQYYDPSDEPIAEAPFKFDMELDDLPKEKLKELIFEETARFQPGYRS
pIC50: −log10 of the molar value.

Cc1cnc(Nc2ccnn2C(F)F)nc1-c1cn2c(n1)-c1nnc(C(F)(F)c3ccccc3F)n1[C@@H](C)C2 [Compound 226] :: ≥ 8.30
Cn1nccc1Nc1cc(-c2cc3n(c2)CC(F)(F)Cn2c(Cn4cccc4C#N)nnc2-3)c(Cl)cn1 [Compound 217] :: ≥ 8.30
Cc1cnc(Nc2ccnn2C)cc1-c1cc2n(c1)CC1(CC1)Cn1c-2nnc1C(F)(F)C(F)(F)F [Compound 84] :: 8.00 to 8.30
CC(C)Nc1cc(-c2cc3n(c2)CCCn2c-3nnc2C2(C(F)(F)F)CCC2)c(Cl)cn1 [Compound 230] :: 8.00 to 8.30
Cn1nccc1Nc1ncc(Cl)c(-c2cc3n(c2)CCCn2c(COc4ccccc4F)nnc2-3)n1 [Compound 211] :: 8.00 to 8.30
Cn1nccc1Nc1nccc(-c2cn3c(c2F)-c2nnc(COc4ccccc4F)n2CCC3)n1 [Compound 246] :: ≥ 8.30

// below: pIC50 requested for another molecule
Q: Request body: readout pIC50, system MAPK1(ERK2) enzyme (Homo sapiens), query Cc1cnc(Nc2ccnn2C)nc1-c1cc2n(c1)C[C@@H](C)n1c-2nnc1C1(C(F)(F)F)CCC1 [Compound 239] . Return the value.
Ans: ≥ 8.30

====

Record set of pIC50 for target or system MAPK1(ERK2) enzyme (Homo sapiens, UniProt P28482).
pIC50: −log10 of the molar value.

Worked set:
C[C@@H](c1ccccc1)c1nnc2n1CCCn1cc(-c3cc(Nc4ccnn4C)ncc3Cl)cc1-2 :: 8.00 to 8.30
Cn1nccc1Nc1cc(-c2cc3n(c2)C[C@H](CF)n2c-3nnc2C2(C(F)(F)F)CCC2)c(Cl)cn1 :: ≥ 8.30

Q: Param item = Cc1cnc(Nc2ccnn2C)nc1-c1cc2n(c1)CCCn1c(COc3ccccc3F)nnc1-2 ; retrieve measured pIC50.
Ans: ≥ 8.30

Q: For the compound shown here, Fc1ccccc1OCc1nnc2n1CCCn1cc(-c3cc(NC4CC4)ncc3C(F)(F)F)cc1-2 , give the reported pIC50.
Ans: < 8.00

====

pIC50: −log10 of the molar value.
For MAPK1(ERK2) enzyme (Homo sapiens, UniProt P28482), measured pIC50 is reported for the entries below.

Below are worked cases with known answers.
Cn1nccc1Nc1nccc(-c2cc3n(c2)C[C@H](C(F)F)n2c-3nnc2C(F)(F)c2ccccc2F)n1 :: ≥ 8.30
C[C@H](Oc1ccccc1F)c1nnc2n1CC(C)(C)Cn1cc(-c3ccnc(Nc4ccnn4C)n3)cc1-2 :: < 8.00
Cn1nccc1Nc1cc(-c2cc3n(c2)C[C@H](CF)n2c-3nnc2C(F)(F)c2ncccc2F)c(Cl)cn1 :: ≥ 8.30

Q: Look at this compound and give its reported pIC50. Cn1nccc1Nc1cc(-c2cc3n(c2)CCn2c-3nnc2C(F)(F)C(F)F)c(Cl)cn1
Ans: ≥ 8.30

====

- Tested on: UniProt:P28482
pIC50: −log10 of the molar value.
Measured property: pIC50

COC[C@H]1Cn2cc(-c3cc(Nc4ccnn4C)ncc3C)cc2-c2nnc(C(F)(F)c3ccccc3F)n21 [Compound 303] :: 8.00 to 8.30

Q: I have this compound here, Cc1cnc(Nc2ccnn2C)cc1-c1cc2n(c1)C[C@H](CF)n1c-2nnc1C(F)(F)c1cc(F)ccc1F [Compound 183] , and I need its recorded pIC50.
Ans: ≥ 8.30

Q: Quick check: pIC50 of C[C@H]1Cn2cc(-c3cc(Nc4ccnn4C)ncc3Cl)cc2-c2nnc(C(F)(F)n3cc(Cl)cn3)n21 [Compound 157] ?
Ans: 8.00 to 8.30

Q: Reported pIC50, compound FC[C@H]1Cn2cc(-c3cc(NN4CCOCC4)ncc3Cl)cc2-c2nnc(C(F)(F)c3ccccc3F)n21 [Compound 274] : ____
Ans: < 8.00
